assay: method code SF-AS, from PMID: 6889867; details: pH 7.4
logD reference
metric: logD

{"smiles_repr": "C=CCc1c(OCC)cc(Cc2cnc(N)nc2N)cc1OCC", "measured_result": 2.89}
{"smiles_repr": "CCOC(=O)c1c(OCC)cc(Cc2cnc(N)nc2N)cc1OCC", "measured_result": 2.09}
{"smiles_repr": "COc1ccc(Cc2cnc(N)nc2N)c(OC)n1", "measured_result": 1.83}
{"smiles_repr": "COc1cc(Cc2cnc(N)nc2N)ccc1SC", "measured_result": 1.73}
{"smiles_repr": "CCOc1cc(Cc2cnc(N)nc2N)cc(OCC)c1C(C)(C)O", "measured_result": 2.3}
{"smiles_repr": "COc1cc(Cc2cnc(N)nc2N)cc(OC)c1N", "measured_result": 0.6}
